- measurement_target: pm8 (human, sulfated tyrosines at Y15, Y16 and Y17)
- Sequence (peptide, as listed by the source): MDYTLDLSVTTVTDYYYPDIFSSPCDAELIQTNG
- test_description: ELISA on coated peptide [cont.]
- Procedure: The specific binding properties of antibodies were evaluated by ELISA with coated CCR8 related peptides (500 ng/mL) in carbonate/bicarbonate buffer. Different peptides were used as described in Table 1 (see Example 1). Each anti-CCR8 mAb was tested at 1 μg/mL then diluted at 1/10. […] Then the optical density (OD) was determined by using a multiplate reader (Tecan, Lyon, France) and correlated with mAb reactivity on the panel of coated peptides.

binder	binding result
3-46 (antibody, V domains shown) VH: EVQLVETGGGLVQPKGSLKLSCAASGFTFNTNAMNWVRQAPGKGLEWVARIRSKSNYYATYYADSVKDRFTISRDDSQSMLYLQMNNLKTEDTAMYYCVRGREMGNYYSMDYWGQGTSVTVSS VL: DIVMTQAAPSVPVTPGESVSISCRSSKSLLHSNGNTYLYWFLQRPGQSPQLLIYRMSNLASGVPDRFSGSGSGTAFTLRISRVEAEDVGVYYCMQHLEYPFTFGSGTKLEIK	binds
3-79 (antibody, human IgG1, kappa, V domains shown, humanized, human IgG1 kappa) VH: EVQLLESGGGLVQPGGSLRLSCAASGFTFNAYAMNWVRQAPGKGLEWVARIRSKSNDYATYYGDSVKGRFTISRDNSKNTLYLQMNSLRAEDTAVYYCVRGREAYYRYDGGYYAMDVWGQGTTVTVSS VL: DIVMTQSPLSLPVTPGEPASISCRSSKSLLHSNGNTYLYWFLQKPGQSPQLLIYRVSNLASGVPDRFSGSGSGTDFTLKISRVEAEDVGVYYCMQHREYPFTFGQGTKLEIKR	binds
